Each recorded value in this set is attributed to ChEMBL document CHEMBL4715916.

# target.system: Cannabinoid receptor 1 (Homo sapiens, UniProt P21554)
# Sequence (P21554 whole entry): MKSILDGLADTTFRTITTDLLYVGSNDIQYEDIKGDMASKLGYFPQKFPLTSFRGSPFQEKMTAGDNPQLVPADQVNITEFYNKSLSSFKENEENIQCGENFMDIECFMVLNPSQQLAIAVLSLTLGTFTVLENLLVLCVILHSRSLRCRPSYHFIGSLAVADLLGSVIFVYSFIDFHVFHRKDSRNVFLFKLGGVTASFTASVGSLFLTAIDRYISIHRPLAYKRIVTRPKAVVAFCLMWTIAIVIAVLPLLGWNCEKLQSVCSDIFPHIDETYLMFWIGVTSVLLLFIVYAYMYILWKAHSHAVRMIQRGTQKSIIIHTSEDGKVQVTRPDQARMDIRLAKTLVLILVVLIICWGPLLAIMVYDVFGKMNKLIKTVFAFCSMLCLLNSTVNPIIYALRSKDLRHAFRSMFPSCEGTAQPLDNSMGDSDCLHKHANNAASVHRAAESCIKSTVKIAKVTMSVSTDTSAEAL
# experiment.notes: Displacement of [3H]-CP55940 from human recombinant cannabinoid CB1 receptor expressed in HEK cell membranes incubated for 1.5 hrs by liquid scintillation counting method
# Design: species or system Cell membrane
pKi: −log10 of the molar value.
assay.endpoint: pKi

// query pKi value for entry O=C(c1ccccc1)c1cc(O)c(-c2ccnc(F)c2)c(O)c1 < 5.00

Entry under review: O=C(c1ccccc1)c1cc(O)c(-c2ccsc2)c(O)c1 . Reported pKi? < 5.00

Fill blank: measured pKi of the molecule Cc1cccc(-c2c(O)cc(C(=O)c3cccs3)cc2O)c1 is ____. 5.02

# query: pKi of entry O=C(c1ccccc1)c1cc(O)c(-c2ccncc2)c(O)c1 < 5.00

---

# target.system: Cannabinoid receptor 2 (Homo sapiens)
# Sequence (P34972 whole entry): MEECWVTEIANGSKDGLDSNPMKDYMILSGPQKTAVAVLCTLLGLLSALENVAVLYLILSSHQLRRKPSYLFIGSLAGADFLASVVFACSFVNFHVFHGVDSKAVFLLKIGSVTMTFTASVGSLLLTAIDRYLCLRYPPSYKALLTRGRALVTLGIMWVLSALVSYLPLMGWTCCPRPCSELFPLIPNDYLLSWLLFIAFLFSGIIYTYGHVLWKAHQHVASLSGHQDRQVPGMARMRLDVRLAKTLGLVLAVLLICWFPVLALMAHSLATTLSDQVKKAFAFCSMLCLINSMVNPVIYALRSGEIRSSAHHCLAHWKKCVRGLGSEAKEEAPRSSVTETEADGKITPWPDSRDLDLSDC
# experiment.notes: Displacement of [3H]-CP55940 from human recombinant cannabinoid CB2 receptor expressed in HEK cell membranes incubated for 1.5 hrs by liquid scintillation counting method
pKi: −log10 of the molar value.
Classify by measured pKi: rule met if it is equal to or exceeds 6, rule not met if it is smaller.

Would you say N#Cc1cc(-c2c(O)cc(C(=O)c3ccccc3)cc2O)ccc1F shows pKi at minimum 6? rule not met

Would you say O=C(c1cc(O)c(-c2cc(C(F)(F)F)cc(C(F)(F)F)c2)c(O)c1)c1cccs1 shows pKi at minimum 6? rule met

Hi team, for O=C(c1ccccc1)c1cc(O)c(-c2cc(Cl)ccc2Cl)c(O)c1 , is the recorded pKi at or above 6? rule met

Quick check: does O=C(c1ccccc1)c1cc(O)c(-c2cc(F)cc(F)c2)c(O)c1 have pKi greater than or equal to 6? rule not met

Is it the case that O=C(c1cc(O)c(-c2ccncc2)c(O)c1)c1cccs1 has pKi reaching or exceeding 6? rule not met

---

# target.system: Cannabinoid receptor 2 (Homo sapiens)
# experiment.notes: Inverse agonist activity at cannabinoid CB2 receptor in human U2OS cells assessed as induction of beta-arrestin recruitment using CCF4/AM as substrate preincubated for 5 hrs followed by substrate addition and measured after 2 hrs by Tango assay
# Type: cell-based
So basically: is EC50 under 3 µM? Then condition met. Not under? Then condition not met.

Field: below-cutoff. Rule: recorded EC50 strictly less than 3 µM. Subject: O=C(c1ccccc1)c1cc(O)c(-c2cc(Cl)ccc2Cl)c(O)c1 condition not met

Does the reported EC50 of the following compound sit strictly below 3 µM? O=C(c1ccccc1)c1cc(O)c(-c2cc(F)cc(F)c2)c(O)c1 condition not met

Quick check: EC50 of Cc1cccc(-c2c(O)cc(C(=O)c3cccs3)cc2O)c1 under 3 µM? condition not met

API: query returns whether the compound falls strictly under 3 µM in EC50. Query: O=C(c1ccccc1)c1cc(O)c(-c2cc(C(F)(F)F)cc(C(F)(F)F)c2)c(O)c1 condition met

Report whether reported EC50 is lower than 3 µM (strictly) for O=C(c1cc(O)c(-c2cc(C(F)(F)F)cc(C(F)(F)F)c2)c(O)c1)c1cccs1 condition met

Does O=C(c1ccccc1)c1cc(O)c(-c2cccc(C(F)(F)F)c2)c(O)c1 have EC50 strictly under 3 µM? condition not met

Answer whether the compound O=C(c1cc(O)c(-c2cccc(C(F)(F)F)c2)c(O)c1)c1cccs1 has EC50 strictly less than 3 µM condition not met

Does O=C(c1cc(O)c(-c2cc(Cl)ccc2Cl)c(O)c1)c1cccs1 have EC50 strictly under 3 µM? condition not met

Quick check: EC50 of Cc1cccc(-c2c(O)cc(C(=O)c3ccccc3)cc2O)c1 under 3 µM? condition not met
